- assayedTarget: D(2) dopamine receptor (Homo sapiens, UniProt P14416)
- Sequence (P14416 whole entry): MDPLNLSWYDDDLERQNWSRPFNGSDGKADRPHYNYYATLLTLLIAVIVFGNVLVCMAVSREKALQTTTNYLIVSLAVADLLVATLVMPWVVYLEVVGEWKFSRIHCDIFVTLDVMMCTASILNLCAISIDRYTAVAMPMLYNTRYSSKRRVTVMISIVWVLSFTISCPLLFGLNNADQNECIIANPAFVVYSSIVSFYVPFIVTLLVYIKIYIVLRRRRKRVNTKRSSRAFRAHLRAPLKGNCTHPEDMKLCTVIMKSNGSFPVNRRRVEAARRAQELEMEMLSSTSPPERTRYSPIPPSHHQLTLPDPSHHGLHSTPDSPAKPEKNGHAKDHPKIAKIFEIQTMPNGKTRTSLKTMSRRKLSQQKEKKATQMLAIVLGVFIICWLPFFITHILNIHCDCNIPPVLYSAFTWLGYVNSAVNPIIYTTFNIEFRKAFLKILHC
- procedureDetails: Binding affinity towards cloned human Dopamine receptor D2 was determined
Ki by entry:
quantityMeasured: Ki

{"columns": ["structureNotation", "experimentalValue"],
 "data": [
  ["Cc1sc(C)c2c1CCCc1cnn(C(C)C)c1-2", "0.555 µM"],
  ["Cc1sc(C)c2c1CCc1cnn(C)c1-2", "0.462 µM"],
  ["Cc1sc(C)c2c1CCCc1nnc(C)n1-2", "> 10 µM"],
  ["Cc1oc(C)c2c1CCCc1cnn(C)c1-2", "0.028 µM"],
  ["Cn1ncc2c1-c1ccccc1CCC2", "> 10 µM"],
  ["Cc1sc(C)c2c1CCCc1ncn(C)c1-2", "> 10 µM"],
  ["CCCn1ncc2c1-c1c(Cl)sc(Cl)c1CCC2", "> 10 µM"],
  ["Cc1sc(C)c2c1CCCc1cnn(-c3ccccc3)c1-2", "> 10 µM"],
  ["Cc1ccc(C)c2c1CCCc1c[nH]nc1-2", "> 10 µM"],
  ["Cn1cc2c(n1)-c1ccccc1CCC2", "> 10 µM"],
  ["c1ccc2c(c1)CCCc1c[nH]nc1-2", "> 10 µM"]
]}

====

- assayedTarget: D(4) dopamine receptor (Homo sapiens, UniProt P21917)
- procedureDetails: Binding affinity to recombinant human dopamine receptor D4
quantityMeasured: Ki (nM)

{"columns": ["structureNotation", "assayedTarget", "readoutUnit", "qualifierSymbol", "experimentalValue"],
 "data": [
  ["Cc1sc(C)c2c1CCc1cnn(C)c1-2", "D(4) dopamine receptor (Homo sapiens, UniProt P21917)", "nM", "=", 26],
  ["CCn1ncc2c1-c1c(C)sc(C)c1CCC2", "D(4) dopamine receptor (Homo sapiens, UniProt P21917)", "nM", "=", 22],
  ["Cc1oc(C)c2c1CCCc1cnn(C)c1-2", "D(4) dopamine receptor (Homo sapiens, UniProt P21917)", "nM", "=", 11],
  ["CCn1ncc2c1-c1c(Cl)sc(Cl)c1CCC2", "D(4) dopamine receptor (Homo sapiens, UniProt P21917)", "nM", "=", 168],
  ["Cn1ncc2c1-c1c(Cl)sc(Cl)c1CCC2", "D(4) dopamine receptor (Homo sapiens, UniProt P21917)", "nM", "=", 14],
  ["Cc1sc(C)c2c1CCCc1nncn1-2", "D(4) dopamine receptor (Homo sapiens, UniProt P21917)", "nM", "=", 4320],
  ["Cn1cc2c(n1)-c1ccccc1CCC2", "D(4) dopamine receptor (Homo sapiens, UniProt P21917)", "nM", "=", 507],
  ["c1ccc2c(c1)CCCc1c[nH]nc1-2", "D(4) dopamine receptor (Homo sapiens, UniProt P21917)", "nM", ">", 10000],
  ["Cc1sc(C)c2c1CCCc1cnn(C)c1-2", "D(4) dopamine receptor (Homo sapiens, UniProt P21917)", "nM", "=", 2],
  ["Cc1sc(C)c2c1CCCc1c[nH]nc1-2", "D(4) dopamine receptor (Homo sapiens, UniProt P21917)", "nM", "=", 12],
  ["Cc1sc(C)c2c1CCCc1cn(C)nc1-2", "D(4) dopamine receptor (Homo sapiens, UniProt P21917)", "nM", "=", 228],
  ["Clc1sc(Cl)c2c1CCCc1c[nH]nc1-2", "D(4) dopamine receptor (Homo sapiens, UniProt P21917)", "nM", "=", 169],
  ["Cc1sc(C)c2c1CCCc1ncn(C)c1-2", "D(4) dopamine receptor (Homo sapiens, UniProt P21917)", "nM", "=", 1290],
  ["Cc1sc(C)c2c1CCc1c[nH]nc1-2", "D(4) dopamine receptor (Homo sapiens, UniProt P21917)", "nM", "=", 170],
  ["CCCn1ncc2c1-c1c(C)sc(C)c1CCC2", "D(4) dopamine receptor (Homo sapiens, UniProt P21917)", "nM", "=", 97],
  ["Cc1ccc(C)c2c1CCCc1c[nH]nc1-2", "D(4) dopamine receptor (Homo sapiens, UniProt P21917)", "nM", "=", 425]
]}

====

- assayedTarget: D(1A) dopamine receptor (Homo sapiens, UniProt P21728)
- Sequence (P21728 whole entry): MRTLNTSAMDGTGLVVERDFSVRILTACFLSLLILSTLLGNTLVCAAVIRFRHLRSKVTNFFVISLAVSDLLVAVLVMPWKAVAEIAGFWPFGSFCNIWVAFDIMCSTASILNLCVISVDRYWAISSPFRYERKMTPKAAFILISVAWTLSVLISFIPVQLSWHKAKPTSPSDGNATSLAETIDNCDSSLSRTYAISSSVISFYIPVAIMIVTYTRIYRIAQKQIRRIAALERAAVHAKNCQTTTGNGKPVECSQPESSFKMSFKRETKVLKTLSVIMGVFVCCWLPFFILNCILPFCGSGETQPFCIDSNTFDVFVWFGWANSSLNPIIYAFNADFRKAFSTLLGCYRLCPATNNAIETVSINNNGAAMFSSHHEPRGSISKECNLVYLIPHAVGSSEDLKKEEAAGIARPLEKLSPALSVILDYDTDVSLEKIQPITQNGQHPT
- procedureDetails: Binding affinity towards Dopamine receptor D1 was determined

{"columns": ["structureNotation", "assayedTarget", "Ki"],
 "data": [
  ["Cc1sc(C)c2c1CCCc1c[nH]nc1-2", "D(1A) dopamine receptor (Homo sapiens, UniProt P21728)", "> 10 µM"]
]}

====

- assayedTarget: D(4) dopamine receptor (Homo sapiens, UniProt P21917)
- procedureDetails: Binding affinity to recombinant human dopamine receptor D4
quantityMeasured: log10 Ki (log10 of the value in nM)

{"columns": ["structureNotation", "experimentalValue"],
 "data": [
  ["Cc1sc(C)c2c1CCc1cn(C)nc1-2", 3.46],
  ["Cc1sc(C)c2c1CCCc1nnc(C)n1-2", 2.66],
  ["Cc1sc(C)c2c1CCCc1nccn1-2", 2.48],
  ["CC(C)n1ncc2c1-c1c(Cl)sc(Cl)c1CCC2", 3.19],
  ["Cc1sc(C)c2c1CCCc1cnn(C(C)C)c1-2", 2.14]
]}

====

- procedureDetails: Half life in human microsomes
- Format: ADME, Microsome
half-life by entry:
quantityMeasured: half-life (min)

{"columns": ["structureNotation", "readoutUnit", "qualifierSymbol", "experimentalValue"],
 "data": [
  ["Cc1sc(C)c2c1SCc1cnn(C)c1-2", "min", "<", 1],
  ["Cc1sc(C)c2c1CCCc1c[nH]nc1-2", "min", "=", 6]
]}

====

- assayedTarget: D(4) dopamine receptor (Homo sapiens)
- procedureDetails: Binding affinity to recombinant human dopamine receptor D4
Ki by entry:

{"columns": ["structureNotation", "qualifierSymbol", "Ki / nM"],
 "data": [
  ["Cc1sc(C)c2c1SCc1cnn(C)c1-2", "=", 3],
  ["Cc1oc(C)c2c1CCCc1c[nH]nc1-2", "=", 275],
  ["Cc1sc(C)c2c1CCCc1c-2n[nH]c1CN(C)C", "=", 2560],
  ["Cc1sc(C)c2c1CCCc1cnn(-c3ccccc3)c1-2", "=", 1580],
  ["CCCn1ncc2c1-c1c(Cl)sc(Cl)c1CCC2", "=", 3550],
  ["Clc1sc(Cl)c2c1CCCc1cnn(Cc3ccccc3)c1-2", ">", 10000],
  ["Cc1sc(C)c2c1CC(C)(C)Cc1c[nH]nc1-2", "=", 1300]
]}

====

- assayedTarget: UniProtKB P14416
- procedureDetails: Binding affinity towards cloned human Dopamine receptor D2 was determined
quantityMeasured: log10 of Ki (log10 of the value in nM)

{"columns": ["structureNotation", "log10 of Ki"],
 "data": [
  ["CCn1ncc2c1-c1c(C)sc(C)c1CCC2", 2.60],
  ["Cn1ncc2c1-c1c(Cl)sc(Cl)c1CCC2", 2.62],
  ["CCCn1ncc2c1-c1c(C)sc(C)c1CCC2", 2.95],
  ["Cc1sc(C)c2c1CCCc1cn(C)nc1-2", 2.81],
  ["Cc1sc(C)c2c1CCCc1cnn(C)c1-2", 2.25],
  ["Cc1sc(C)c2c1CCCc1c[nH]nc1-2", 3.32],
  ["Cc1sc(C)c2c1SCc1cnn(C)c1-2", 2.05],
  ["Clc1sc(Cl)c2c1CCCc1c[nH]nc1-2", 2.73],
  ["CCn1ncc2c1-c1c(Cl)sc(Cl)c1CCC2", 2.69]
]}

====

- assayedTarget: D(4) dopamine receptor (Homo sapiens)
- Sequence (P21917 whole entry): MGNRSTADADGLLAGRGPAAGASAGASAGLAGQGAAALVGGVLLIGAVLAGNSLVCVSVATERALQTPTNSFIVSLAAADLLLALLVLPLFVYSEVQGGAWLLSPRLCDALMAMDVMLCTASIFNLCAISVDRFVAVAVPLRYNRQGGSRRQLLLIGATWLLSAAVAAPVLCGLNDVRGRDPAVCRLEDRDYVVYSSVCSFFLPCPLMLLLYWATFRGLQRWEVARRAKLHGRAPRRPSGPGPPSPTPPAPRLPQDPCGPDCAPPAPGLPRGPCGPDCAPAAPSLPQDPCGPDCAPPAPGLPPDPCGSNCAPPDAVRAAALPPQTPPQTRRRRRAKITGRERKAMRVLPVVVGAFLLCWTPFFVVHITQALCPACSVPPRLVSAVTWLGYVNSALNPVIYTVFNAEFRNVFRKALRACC
- procedureDetails: Antagonistic activity against human Dopamine receptor D4.2 using [35S]GTP-gamma-S binding assay
pEC50: −log10 of the molar value.
quantityMeasured: pEC50

{"columns": ["structureNotation", "quantityMeasured", "experimentalValue"],
 "data": [
  ["Cc1sc(C)c2c1CCCc1c[nH]nc1-2", "pEC50", 8.05]
]}
